# test-target: Solute carrier family 2, facilitated glucose transporter member 1 (Homo sapiens)
# method-summary: ST_JUDE_LEISH: Cytotoxicity at 2uM final concentration against transgenic Leishmania Mexicana promastigotes LmGLUT1 that are glucose transport deficient and complemented with the human glucose transporter GLUT1. Activity is measured by DNA content using SYBR green in vitro
# Type: functional
readout-name: inhibition (%)

INSERT INTO results (molecule, numeric_readout) VALUES
  ('Cc1cc(-c2nc3cc(C(=N)N)ccc3[nH]2)c(C)cc1-c1nc2cc(C(=N)N)ccc2[nH]1', 4.57),
  ('CCOc1ccccc1N1CCN(CCCNC(=O)/C(=C/C=C/c2cc3cc(Cl)c(Cl)cc3[nH]2)OC)CC1', 1.44),
  ('COc1ccc(CNCc2ccc(F)cc2)cc1-c1ccc(S(=O)(=O)NCCN2CCCC2)c(C)c1', 2.82),
  ('CN1CCN(Cc2cccc(-c3ccc4c(Nc5ccc(Oc6cccnc6)cc5)ccnc4c3)c2)CC1', 4.73),
  ('COc1ccc(-c2ccc(NC(=O)c3cccc(C#N)c3)cc2)cc1CN(C)C', 1.28),
  ('FC(F)(F)c1ccc2[nH]ccc(=NN=Cc3cccnc3)c2c1', 1.46),
  ('Cc1cc(N2CCCC2)nc(Nc2ccc(NC(=O)COc3ccccc3)cc2)n1', 6.11),
  ('COc1ccc2ncc(F)c(CCN3CC(O)C(CNCc4ccc5ccccc5c4)C3)c2n1 (centres undefined)', 15.5),
  ('COc1ccc(-c2cnc3[nH]cc(-c4ccc(C(=O)O)cc4)c3c2)cn1', -1.03);

###

# test-target: Hexose transporter 1 (Plasmodium falciparum)
# method-summary: ST_JUDE_LEISH: Cytotoxicity at 2uM final concentration against transgenic Leishmania Mexicana promastigotes LmPfHT that are glucose transport deficient and complemented with the Plasmodium falciparum hexose transporter. Activity is measured by DNA content using SYBR green in vitro
# Assay type: functional
# thresholds on inhibition define classes: band 1 = under 3%, band 2 = from 3% up to 7%, band 3 = 7% and over

INSERT INTO measurements (compound, label_class) VALUES
  ('COc1ccccc1/C=C/C(=O)N(C)C1CCN(CCCCCNC(=O)/C=C/c2ccc(Cl)c(Cl)c2)CC1', 'band 1'),
  ('Cn1c2c(c3ccccc31)CN(CCC1(c3ccc(Cl)c(Cl)c3)CN(C(=O)Cc3ccccc3)CCO1)CC2 (stereo not given)', 'band 2'),
  ('COc1cc(C=NNc2cc(C)nc3c(OC)cccc23)cc(OC)c1OC', 'band 2'),
  ('COc1cc(Cc2cnc(N)nc2N)cc(OCCCOc2ccccc2)c1OC', 'band 2'),
  ('CN1CCN(c2ccnc3ccc(NC(=O)Nc4ccc5ccccc5c4)cc23)CC1', 'band 1'),
  ('Cc1cccc2nc(-c3ccc(-c4cccc(C(=O)NCCN5CCCC5)c4)s3)[nH]c12', 'band 3'),
  ('COc1cccc(-c2cccc(-c3ccc(NC(=O)c4ccc([N+](=O)[O-])o4)cc3)n2)c1', 'band 3'),
  ('CCOc1cc(N)c2nc3ccc([N+](=O)[O-])cc3cc2c1', 'band 3'),
  ('O=C(/C=C/c1ccc(Cl)c(Cl)c1)N1CCC(CCCN2CCC(c3c[nH]c4ccc(O)cc34)CC2)CC1', 'band 3'),
  ('CC(C)(C)c1ccc2nccc(Nc3cccc(O)c3)c2c1', 'band 1'),
  ('CC1CN(c2ccc(NC(=O)c3ccc(F)cc3)cc2)CCN1Cc1cccc(F)c1 (stereo not given)', 'band 1'),
  ('CCn1c(-c2cc(C)on2)nc2cnc(Oc3ccc(C(=O)N4CC(=O)N(C)C4C(C)(C)C)cc3)cc21 (stereo not given)', 'band 1'),
  ('COc1ccc2nccc([C@@H](O)CN3CCC(NCc4ccc5c(c4)oc(=S)n5C)CC3)c2c1', 'band 2'),
  ('CC1(C)NC(N)=NC(=N)N1OCCCOc1cccc(Cl)c1', 'band 2'),
  ('Cc1cc(N[C@@H](CC(C)C)C(=O)NCc2cccc(F)c2)nc(NCC2CCCCC2)n1', 'band 2'),
  ('Cc1cc(NC(=O)NCCN2CCC(NS(=O)(=O)c3ccccc3F)CC2)c2ccccc2n1', 'band 1'),
  ('CCCN(Cc1ccc(OCC)cc1)Cc1cc(=O)c2cc(Cl)ccc2[nH]1', 'band 3');

###

# test-target: Solute carrier family 2, facilitated glucose transporter member 1 (Homo sapiens)
# method-summary: ST_JUDE_LEISH: Cytotoxicity at 2uM final concentration against transgenic Leishmania Mexicana promastigotes LmGLUT1 that are glucose transport deficient and complemented with the human glucose transporter GLUT1. Activity is measured by DNA content using SYBR green in vitro
# Type: functional
# inhibition annotations
readout-name: inhibition (%)

INSERT INTO measurements (compound, readout_name, numeric_readout) VALUES
  ('O=C(Nc1ccccc1N1CCOCC1)c1ncoc1-c1ccccc1C(F)(F)F', 'inhibition', 3.99),
  ('CCOc1cc(OCC)c2ccccc2c1CNCCCCCCNCc1c(OCC)cc(OCC)c2ccccc12', 'inhibition', 83.2),
  ('O=S(=O)(Nc1ccc2nccc(N3CCNCC3)c2c1)c1ccc(-c2ccccc2)cc1', 'inhibition', 0.86),
  ('CC(C)(C)Nc1nc(Nc2cccc([N+](=O)[O-])c2)nc(-n2ccnc2)n1', 'inhibition', 1.91),
  ('Cc1cccc2nc(-c3cccc(-c4cccc(CNCCc5cccn5C)c4)c3)[nH]c12', 'inhibition', 0.04),
  ('CCOc1ccc(-n2nc3c(Cl)nnc(-c4ccccc4)c3c2-c2ccccc2)cc1', 'inhibition', 4.48),
  ('CCCc1cc(Cc2cnc(N)nc2N)cc(CCC)c1OCCCCC(=O)O', 'inhibition', 1.12),
  ('O=[N+]([O-])c1ccccc1/C=N/Nc1ccnc2ccc(C(F)(F)F)cc12', 'inhibition', -0.59),
  ('CC(C)(C)c1ccc(-c2ccccc2CNC(=O)c2cccc(O)c2)cc1', 'inhibition', 6.97),
  ('Cc1[nH]c(C)c(Cc2ccc(Oc3ccc(OC(F)(F)F)cc3)cc2)c(=O)c1Br', 'inhibition', -0.67),
  ('Cc1cc(-c2cccc(CNC3CCN(C)CC3)c2)ccc1S(=O)(=O)NCc1ccccc1', 'inhibition', 4.02),
  ('Cc1cc(C)c2oc(-c3cccc(NC(=O)c4ccc([N+](=O)[O-])o4)c3C)nc2c1', 'inhibition', 11.4),
  ('NCCNS(=O)(=O)c1ccc(-c2ccnc3[nH]c(-c4ccncc4)cc23)cc1', 'inhibition', 0.72),
  ('CCn1c(CN2CCC(C)CC2)nc2cc(NC(=O)c3cccs3)ccc21', 'inhibition', 9.93),
  ('O=C(C1CCN(c2nnnn2-c2ccccc2)CC1)N1CCc2ccccc2C1', 'inhibition', 13),
  ('N=C(NCCc1ccc(Cl)cc1)c1ccc(Cl)c(Cl)c1', 'inhibition', 2),
  ('N#C/N=C(\NCCCCCCCCN/C(=N\C#N)NCCSCc1csc(N=C(N)N)n1)NCCCSc1csc(N=C(N)N)n1', 'inhibition', -0.03),
  ('c1cncc(CCNCc2ccc(-c3cccc(-c4nc5ccccc5[nH]4)c3)cc2)c1', 'inhibition', -0.73),
  ('C[C@H](Cc1ccc(OCCCCCCOc2ccc(C[C@@H](C)N[C@H](C)c3ccccc3)cc2)cc1)NC[C@H](O)c1cccc(Cl)c1', 'inhibition', 106),
  ('Cc1cccc2nc(-c3ccc(-c4ccc(CNC(C)C)cc4)cc3)[nH]c12', 'inhibition', 21.6),
  ('CC(CCc1ccccc1)NCC(O)c1ccc2c3c(cccc13)S(=O)(=O)N2C (centres undefined)', 'inhibition', 5.47),
  ('CCCC(C)NC(=O)[C@H]1CNCCN1C(=O)CCCc1ccccc1 (some centres undefined)', 'inhibition', 8.59),
  ('CC(C)c1ccc(NC(=O)N[C@H]2CCN(CCCCCNC(=O)/C=C/c3ccc(Cl)c(Cl)c3)C2)cc1', 'inhibition', 2.04),
  ('Cn1nc(-c2ccc(NC(=O)Nc3cc(C(F)(F)F)ccc3F)c(F)c2)c2cnc(NCCCn3ccnc3)nc21', 'inhibition', -0.19),
  ('FC(F)(F)c1ccc2[nH]c(-c3cccc(-c4ccc(CNCCc5ccncc5)cc4)c3)nc2c1', 'inhibition', 1.9),
  ('O=C(/C=C/c1ccc(Cl)c(Cl)c1)NCCCCCN1CCC(NC(=O)Nc2cccc(Cl)c2F)CC1', 'inhibition', -0.8),
  ('COc1ccc(CSC2CCCCC23NC(=S)NC3=S)cc1 (centres undefined)', 'inhibition', 4.42),
  ('Cc1ccc(NC(=O)c2ccc3ncccc3c2)cc1OC1CCN(Cc2ccco2)C1 (centres undefined)', 'inhibition', 0.45),
  ('Cc1ccc(Nc2c3ccccc3nc3ccc(C)cc23)cc1', 'inhibition', 4.86),
  ('O=C(NC1CCN(Cc2ccccc2)CC1)c1cccc(-c2cc3cc(Cl)c(Cl)cc3[nH]2)c1', 'inhibition', 2.36),
  ('COc1ccc2nccc([C@@H](O)CN3CCC(NCc4cc5cccc(O)c5c(=O)[nH]4)CC3)c2c1', 'inhibition', 13.7),
  ('C=C(C)CSc1nc2c(c(=O)n1Cc1ccco1)C1(CCCCC1)Cc1ccccc1-2', 'inhibition', 3.67),
  ('COc1cc(CCNC(=N)/C=C/c2ccc(Cl)cc2)ccc1Cl', 'inhibition', 2.51),
  ('O=C(/C=C/c1ccc(Cl)c(Cl)c1)NCCCN1CCC(c2c[nH]c3ccccc23)CC1', 'inhibition', 6.28),
  ('N#Cc1ccc(-c2ccc(OCC(O)CN3CCCN(C(=O)C(c4ccc5c(c4)OCO5)N4CCN(C/C=C/c5ccccc5)CC4)CC3)cc2)cc1 (centres undefined)', 'inhibition', 4.32),
  ('CN(CCCCCNC(=O)/C=C/c1ccc(Cl)c(Cl)c1)CCc1c[nH]c2ccccc12', 'inhibition', 20.6),
  ('CN(CCC(O)c1ccc(Cl)c(Cl)c1)CC1CC1C(=O)c1ccccc1 (centres undefined)', 'inhibition', 4.57),
  ('O=c1cc(NCCCCNCc2cccc(Cl)c2)[nH]c2ccccc12', 'inhibition', 3.6),
  ('CCOc1cc(NCCSCc2nc[nH]c2C)nc2ccccc12', 'inhibition', -1.28);
